# Test method notes: Interlayer (basal) spacing of montmorillonite clay treated with expansive-type precursors/modifiers
# Type: physicochemical
# Conditions used: montmorillonite; spacing of the clay with the named modifier
Quick list: dMODIFIER per entry.

{"Compound": "CC(O)CO (centres unmarked) [1,2-Propanediol]", "dMODIFIER / nm": 1.09}
{"Compound": "O=C(O)CO [Glycolic acid]", "dMODIFIER / nm": 1.06}
{"Compound": "OC[C@@H](O)[C@@H](O)[C@H](O)[C@@H](O)CO [Sorbitol]", "dMODIFIER / nm": 1.19}
{"Compound": "C=CN1CCCC1=O [Vinyl pyrrolidone]", "dMODIFIER / nm": 1.23}
{"Compound": "OC[C@@H](O)[C@@H](O)[C@@H](O)CO [Adonitol]", "dMODIFIER / nm": 1.04}
{"Compound": "OCCCO [1,3-Propanediol]", "dMODIFIER / nm": 0.98}
{"Compound": "OCCOCCO [Diethylene glycol]", "dMODIFIER / nm": 1.04}
{"Compound": "CC(O)CO (centres unmarked) [Propylene glycol]", "dMODIFIER / nm": 1.01}
{"Compound": "OC[C@@H](O)[C@H]1OC[C@H](O)[C@H]1O [Sorbitan]", "dMODIFIER / nm": 1.09}
{"Compound": "OCC(O)CO [Glycerol]", "dMODIFIER / nm": 1.02}
{"Compound": "OCCOCCOCCO [Triethylene glycol]", "dMODIFIER / nm": 1.08}
